Below: a set of entries, each annotated with reported IC50.
- Experiment Notes: Inhibition of Influenza A virus (A/chicken/Hebei/LZF/ 2014(H5N2)) group-2 Neuraminidase N2 preincubated for 10 mins followed by MUNANA substrate addition and measured after 40 to 60 mins by fluorescence method
Just so you know, I need the unit written after the number.

1) CCC(CC)O[C@@H]1C=C(C(=O)O)C[C@H](NCc2cccc(-c3ccccc3)c2)[C@H]1NC(C)=O | 13.7 µM

Fill in: IC50 of "CCC(CC)O[C@@H]1C=C(C(=O)O)C[C@H](NC/C=C/c2ccc(Cl)cc2)[C@H]1NC(C)=O" is ___
0.255 µM

Fill in: IC50 of "CCC(CC)O[C@@H]1C=C(C(=O)O)C[C@H](NCc2ccc(-c3ccsc3)cc2)[C@H]1NC(C)=O" is ___
1.44 µM
